src = patent US4710500A

target: dopamine (DA) D-2 receptors (Rattus norvegicus); construct: DA D-2 receptors in rat striatal membranes; from tissue; host or cells: rat striatal membranes; experiment: 3H-spiroperidol binding, dopamine D-2 receptors in rat striatal membranes; conditions: rat striatal membranes, in vitro; read-out: 3H-Spiroperidol bindings DA-2 receptors IC50
Sequence (P61169 whole entry): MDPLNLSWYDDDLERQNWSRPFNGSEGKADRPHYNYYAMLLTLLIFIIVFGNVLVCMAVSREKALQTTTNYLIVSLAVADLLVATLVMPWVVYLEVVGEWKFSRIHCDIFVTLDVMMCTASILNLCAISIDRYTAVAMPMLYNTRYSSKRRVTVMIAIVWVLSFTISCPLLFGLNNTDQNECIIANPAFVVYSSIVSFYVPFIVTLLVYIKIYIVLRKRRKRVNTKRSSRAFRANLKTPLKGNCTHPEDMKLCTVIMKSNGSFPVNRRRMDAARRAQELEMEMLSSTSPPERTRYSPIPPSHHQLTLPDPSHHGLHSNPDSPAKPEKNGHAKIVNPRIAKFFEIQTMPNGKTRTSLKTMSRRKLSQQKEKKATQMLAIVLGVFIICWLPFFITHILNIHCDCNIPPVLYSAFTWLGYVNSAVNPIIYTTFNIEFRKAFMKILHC
assay metric: pIC50
Answer as the number alone; pIC50 is minus log10 of concentration in mol/L.

O=C1NCCN1CCN1CCC(c2cn(-c3ccc(F)cc3)c3ccccc23)CC1    7.38
Fc1ccc(-n2cc(N3CCNCC3)c3cc(C(F)(F)F)ccc32)cc1    8.43
CN1CCN(c2cn(-c3ccccc3)c3ccc(Cl)cc23)CC1 [Lu 23-015, reference compound]    7.92

Return reported pIC50; argument: "OCCN1CCN(c2cn(-c3ccc(F)cc3)c3ccc(C(F)(F)F)cc23)CC1" 8.55

###

tested on: methylphenidate-induced gnawing; test: Methylphenidate antagonism; type: in vivo, mice; conditions: *ED50 from sc administration; mice; methylphenidate s.c. 60 mg/kg
assay metric: MePh Antg. ED50 (sc) (µmol/kg)
Expressed in µmol/kg, but write only the number.

CN1CC=C(c2cn(-c3ccccc3F)c3ccc([N+](=O)[O-])cc23)CC1    0.09
O=C1OCCN1CCN1CC=C(c2cn(-c3ccc(F)cc3)c3ccc([N+](=O)[O-])cc23)CC1    9.0
O=C1NCCN1CCN1CC=C(c2cn(-c3ccc(F)cc3)c3ccc([N+](=O)[O-])cc23)CC1    2.6

Next:
Return reported MePh Antg. ED50 (sc); argument: "Cc1nccn1CCN1CC=C(c2cn(-c3ccc(F)cc3)c3ccc(C(F)(F)F)cc23)CC1" 0.77

###

molecular target: serotomin2 (5-HT2) receptors (Rattus norvegicus)
Sequence (P14842 whole entry): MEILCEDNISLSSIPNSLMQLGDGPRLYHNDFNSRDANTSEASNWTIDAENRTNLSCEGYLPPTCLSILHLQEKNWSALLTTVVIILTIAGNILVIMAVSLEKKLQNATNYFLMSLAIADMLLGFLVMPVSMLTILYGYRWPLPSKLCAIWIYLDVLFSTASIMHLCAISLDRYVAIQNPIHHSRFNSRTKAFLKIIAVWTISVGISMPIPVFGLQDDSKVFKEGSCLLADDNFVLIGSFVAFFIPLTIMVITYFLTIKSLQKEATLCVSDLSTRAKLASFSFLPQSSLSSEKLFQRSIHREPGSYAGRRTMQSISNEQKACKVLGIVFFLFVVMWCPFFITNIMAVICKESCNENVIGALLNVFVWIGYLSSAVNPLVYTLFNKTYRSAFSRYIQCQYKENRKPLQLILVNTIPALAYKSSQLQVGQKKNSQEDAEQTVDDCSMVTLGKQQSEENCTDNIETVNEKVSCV
pIC50: −log10 of the molar value. Counter-ions that a name gives are not always drawn.
Returns 1 if the recorded pIC50 is greater than or equal to 8, and 0 otherwise.

Use the examples below as a reference point.
O=C1NCCN1CCN1CCN(c2cn(-c3ccc(F)cc3)c3ccc(C(F)(F)F)cc23)CC1 [Lu 23-001, dihydrobromide]    0
O=C1CCCN1CCN1CCN(c2cn(-c3ccc(F)cc3)c3ccc(C(F)(F)F)cc23)CC1 [Lu 22-133]    1

Note: attention shifts to another entry.
Given CN1CC=C(c2cn(-c3ccc(F)cc3)c3ccc([N+](=O)[O-])cc23)CC1 [Lu 22-135] , state whether its pIC50 is at least 8. 1

###

Reported IC50 values for the following molecules.
target: dopamine (DA) D-2 receptors (Rattus norvegicus); construct: DA D-2 receptors in rat striatal membranes; from tissue; host or cells: rat striatal membranes; test: 3H-spiroperidol binding, dopamine D-2 receptors in rat striatal membranes; settings: rat striatal membranes, in vitro; read-out: 3H-Spiroperidol bindings DA-2 receptors IC50
Counter-ions that a name gives are not always drawn.
Expressed in nM, but write only the number.

Study these solved cases before continuing.
OCCN1CCN([C@@H]2C[C@@H](c3ccc(F)cc3)c3ccc(C(F)(F)F)cc32)CC1 (racemic) [Tefludazine, reference compound]    19
CN1CCN(c2cn(-c3ccc(F)cc3)c3ccc(C(F)(F)F)cc23)CC1 [Lu 21-123, dihydrochloride]    1.7
CN1CC=C(c2cn(-c3ccc(F)cc3)c3ccc(F)cc23)CC1.Cl [Lu 21-018, hydrochloride]    0.74

Next:
Return reported IC50; argument: O=C1NCCN1CCN1CCN(c2cn(-c3ccc(F)cc3)c3ccc(C(F)(F)F)cc23)CC1 [Lu 23-001, dihydrobromide] 6.6
